Recorded values, source paper PMC9394284.

# assay.notes: pharmacokinetics and bioavailability in mouse plasma
# Format: in vivo, Crl:CD-1 mice
# measurement.context: male, Crl:CD-1; mouse plasma; 10 mg/kg PO
experimental.readout: Tmax (h)
Reply with just the number (in h).

Problem: Consider the compound Cc1cc(Cn2ncc3c(-c4cccc(C#N)c4F)nc(N)nc32)ccc1N [11o] and give its measured Tmax.
Solution: 2

====

# assay.notes: pharmacokinetics and brain/plasma ratio in mouse brain
# Format: in vivo, Crl:CD-1 mice
# measurement.context: male, Crl:CD-1, mouse; 10 mg/kg PO; Brain AUClast/Plasma AUClast; read-out: B/P Ratio
experimental.readout: Kp
Number, no unit, nothing else.

Problem: Consider the compound Cc1cc(Cn2ncc3c(-c4cccc(C#N)c4F)nc(N)nc32)ccc1N [11o] and give its measured Kp.
Solution: 0.167
